experiment: Aqueous solubility of Bezuclastinib; format: physicochemical; details: aqueous conditions, aqueous buffer; pH 7.0; read-out: solubility in aqueous conditions
ASSAY_METRIC: solubility (µg/mL)
Answers are plain numbers, in µg/mL.

Query :: Any idea what solubility was measured for Cc1n[nH]c(C(=O)Nc2cnc3[nH]c(-c4ccccc4)cc3c2)c1C [Bezuclastinib] ?
Result :: 0.32

###

assay: Solubility in organic solvents; assay type: physicochemical; settings: organic solvent or mixture, thermodynamic from solid; organic solvents of Table 3 other than DMSO, 21° C.; read-out: free drug concentration (solubility)
ASSAY_METRIC: solubility

Query :: Any idea what solubility was measured for Cc1n[nH]c(C(=O)Nc2cnc3[nH]c(-c4ccccc4)cc3c2)c1C ?
Result :: < 5000 µg/mL
